Value source: paper PMC9482650

target: LNX1_1, Q8TBB1; assay: holdup assay; parameters: key: below the threshold = too weak to quantify, mostly under pKd 3.1 to 4; conditions: plain residues with an end cap or a label only (N-terminal biotin on a linker: ado-ado)
Sequence (Q8TBB1 261-371): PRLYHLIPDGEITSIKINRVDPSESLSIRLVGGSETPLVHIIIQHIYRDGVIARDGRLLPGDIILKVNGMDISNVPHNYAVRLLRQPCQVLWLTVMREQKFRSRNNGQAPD
observable: pKd

These solved cases illustrate the format of a correct answer.
[
  {
    "binder": "KPGKGSETVV [FZD4, Q9ULV1]",
    "pKd": "below the threshold"
  },
  {
    "binder": "EPQYQPGENL [SRC, P12931]",
    "pKd": "below the threshold"
  },
  {
    "binder": "QRPYRRGSEI [KCNJ18, B7U540]",
    "pKd": 3.83
  },
  {
    "binder": "KKMLQRRTLL [OR8G1, Q15617]",
    "pKd": "below the threshold"
  },
  {
    "binder": "IDESKKEWLI [CNTNAP2, Q9UHC6]",
    "pKd": "below the threshold"
  },
  {
    "binder": "AQRARSPSDV [GPR12, P47775]",
    "pKd": 3.79
  },
  {
    "binder": "LESTTVGTSV [KARS1, Q15046]",
    "pKd": 3.97
  }
]

Let us move to another entry and its pKd.
The value of pKd measured for the binder EDPRVEVTQF [SLC22A9, Q8IVM8] turned out to be below the threshold
